Biological target: T1, class I MHC receptor HLA-A2 on T2 cells (human)
T1 construct: detected on the cell surface with a mouse anti-human HLA-A2 monoclonal antibody and goat anti-mouse IgG F(ab')2-FITC; also called HLA-A2 receptor; HLA-A2 class I MHC
Experiment: T2 cells, anti-HLA-A2 flow cytometry after brefeldin A; Average; 6 hr
Experimental: Following overnight incubation, the cells were washed and stained with mouse anti-human HLA-A2 monoclonal antibody for 15 min at 4° C. After washing, the cells were incubated with goat anti-mouse IgG (F(ab′)₂)-FITC (Sigma, St. Louis, Mo.) for 15 min at 4° C. The cells were washed and analyzed on a FACSort flow cytometer with CellQuest v2.1 software (Becton-Dickson, San Jose, Calif.). […] Up-regulation of HLA-A2 expression correlates with binding of HLA-A2 by the filamin-B peptides. […]
fluorescence index under 3 F.I. gets fulfilled, anything at or over 3 F.I. gets not fulfilled.

Qu. Is 3 F.I. strictly greater than the binder's reported fluorescence index? binder: SLQESGLKV [Filamin B peptide #4]
Ans. fulfilled

Qu. Strictly below 3 F.I. in fluorescence index? LILGLVWTL [Filamin B peptide #1]
Ans. fulfilled

Qu. fluorescence index under 3 F.I.? Item: GQGDVMVFV [Filamin B peptide #6]
Ans. fulfilled

Qu. Regarding GLAPLEVRV [Filamin B peptide #3] , kindly confirm whether its fluorescence index is beneath 3 F.I..
Ans. not fulfilled

Qu. A record lists KLILGLVWT [Filamin B peptide #7] . Is its fluorescence index below 3 F.I.?
Ans. fulfilled
